Target Or Test System: HiBit-BRG1 fusion protein (Homo sapiens)
Construct: expressed in transfected cells
Sequence (P51532 whole entry, the tested form may be a part): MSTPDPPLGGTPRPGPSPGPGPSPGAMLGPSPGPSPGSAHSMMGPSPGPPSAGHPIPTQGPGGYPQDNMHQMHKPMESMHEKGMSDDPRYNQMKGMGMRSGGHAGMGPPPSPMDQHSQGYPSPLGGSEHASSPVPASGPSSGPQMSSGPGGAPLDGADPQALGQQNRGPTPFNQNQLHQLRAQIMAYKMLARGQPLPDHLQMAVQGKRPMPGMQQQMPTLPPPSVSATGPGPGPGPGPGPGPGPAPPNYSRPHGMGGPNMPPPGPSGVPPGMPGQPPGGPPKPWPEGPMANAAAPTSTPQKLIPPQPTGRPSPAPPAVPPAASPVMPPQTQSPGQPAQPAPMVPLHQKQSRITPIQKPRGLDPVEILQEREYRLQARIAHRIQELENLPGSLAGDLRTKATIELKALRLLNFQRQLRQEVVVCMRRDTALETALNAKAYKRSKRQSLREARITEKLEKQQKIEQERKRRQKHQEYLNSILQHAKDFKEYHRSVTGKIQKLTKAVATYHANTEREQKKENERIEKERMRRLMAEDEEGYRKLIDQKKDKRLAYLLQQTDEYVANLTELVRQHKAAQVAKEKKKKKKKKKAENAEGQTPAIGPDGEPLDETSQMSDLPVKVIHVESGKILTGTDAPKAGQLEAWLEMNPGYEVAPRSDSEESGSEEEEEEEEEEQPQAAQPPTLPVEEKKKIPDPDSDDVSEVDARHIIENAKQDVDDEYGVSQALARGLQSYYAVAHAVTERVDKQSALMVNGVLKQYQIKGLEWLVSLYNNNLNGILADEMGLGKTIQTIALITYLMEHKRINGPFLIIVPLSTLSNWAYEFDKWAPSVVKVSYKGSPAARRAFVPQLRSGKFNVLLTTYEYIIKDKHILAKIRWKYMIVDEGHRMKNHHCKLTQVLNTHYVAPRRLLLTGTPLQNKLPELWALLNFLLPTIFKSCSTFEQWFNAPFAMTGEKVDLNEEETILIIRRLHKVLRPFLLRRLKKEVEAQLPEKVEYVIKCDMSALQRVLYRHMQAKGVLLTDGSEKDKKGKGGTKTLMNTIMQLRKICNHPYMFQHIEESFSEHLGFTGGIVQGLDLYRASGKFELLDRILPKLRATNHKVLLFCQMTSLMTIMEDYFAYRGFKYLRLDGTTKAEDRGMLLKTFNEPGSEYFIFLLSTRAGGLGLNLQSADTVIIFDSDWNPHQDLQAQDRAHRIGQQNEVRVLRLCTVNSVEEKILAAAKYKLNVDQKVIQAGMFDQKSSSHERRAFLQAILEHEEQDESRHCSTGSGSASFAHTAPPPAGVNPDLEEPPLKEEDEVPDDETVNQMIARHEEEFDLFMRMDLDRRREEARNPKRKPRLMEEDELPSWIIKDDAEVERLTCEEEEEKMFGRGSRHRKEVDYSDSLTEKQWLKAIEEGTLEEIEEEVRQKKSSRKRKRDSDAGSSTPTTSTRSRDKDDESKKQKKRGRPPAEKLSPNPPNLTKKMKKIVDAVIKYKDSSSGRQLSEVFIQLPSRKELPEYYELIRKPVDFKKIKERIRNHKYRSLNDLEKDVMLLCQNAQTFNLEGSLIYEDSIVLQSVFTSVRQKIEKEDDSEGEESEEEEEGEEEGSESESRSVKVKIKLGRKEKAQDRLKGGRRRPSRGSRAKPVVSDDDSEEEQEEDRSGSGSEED
Procedure Details: HiBiT-BRG1 cell-based degradation assay (Nano-Glo HiBiT Lytic Detection, 24 h)
Cond: HeLa, HeLa cells expressing HiBit-BRG1 and LgBit, top dose 30 μM, read-out: BRG1 HiBit Degradation Maximum measured

- Compound: "CS(=O)(=O)n1ccc(C(=O)NCC(=O)Nc2nc(-c3cccc(-c4cccc(CNC(=O)CCOCCOCCNc5cccc6c5C(=O)N(C5CCC(=O)NC5=O)C6=O)c4)c3)cs2)c1 (stereo not drawn)"
  Target Or Test System: "HiBit-BRG1 fusion protein (Homo sapiens)"
  Dmax: "50 to 75%"
- Compound: "CS(=O)(=O)n1ccc(C(=O)NCC(=O)Nc2nc(-c3cccc(-c4ccn(CC(=O)NCCCCCNc5cccc6c5C(=O)N(C5CCC(=O)NC5=O)C6=O)n4)c3)cs2)c1 (stereo not drawn)"
  Target Or Test System: "HiBit-BRG1 fusion protein (Homo sapiens)"
  Dmax: "< 50%"
- Compound: "CS(=O)(=O)n1ccc(C(=O)N[C@@H](COCc2ccc(C(=O)NCCS(=O)(=O)CCNc3cccc4c3C(=O)N(C3CCC(=O)NC3=O)C4=O)cc2)C(=O)Nc2nc(-c3ccccc3)cs2)c1 (stereo partly drawn)"
  Target Or Test System: "HiBit-BRG1 fusion protein (Homo sapiens)"
  Dmax: "< 50%"
- Compound: "CS(=O)(=O)n1ccc(C(=O)N[C@@H](CCOCCCC(=O)N2CC(COc3ccc4c(c3)C(=O)N(C3CCC(=O)NC3=O)C4=O)C2)C(=O)Nc2nc(-c3ccccc3)cs2)c1 (stereo partly drawn)"
  Target Or Test System: "HiBit-BRG1 fusion protein (Homo sapiens)"
  Dmax: "< 50%"
- Compound: "CS(=O)(=O)n1ccc(C(=O)N[C@@H](COCc2ccc(C(=O)N3CCC(CN4CCN(c5ccc6c(c5)C(=O)N(C5CCC(=O)NC5=O)C6=O)CC4)CC3)cc2)C(=O)Nc2nc(-c3ccccc3)cs2)c1 (stereo partly drawn)"
  Target Or Test System: "HiBit-BRG1 fusion protein (Homo sapiens)"
  Dmax: "< 50%"
- Compound: "CS(=O)(=O)n1ccc(C(=O)NCC(=O)Nc2nc(-c3cccc(-c4ccnc(C5(C(=O)N6CCC7(CC6)CC(Oc6ccc8c(c6)C(=O)N(C6CCC(=O)NC6=O)C8=O)C7)CC5)c4)c3)cs2)c1 (stereo not drawn)"
  Target Or Test System: "HiBit-BRG1 fusion protein (Homo sapiens)"
  Dmax: "50 to 75%"
- Compound: "CS(=O)(=O)n1ccc(C(=O)NCC(=O)Nc2nc(-c3cccc(-c4ccnc(OCCNC(=O)CCOCCOCCNc5ccc6c(c5)C(=O)N(C5CCC(=O)NC5=O)C6=O)c4)c3)cs2)c1 (stereo not drawn)"
  Target Or Test System: "HiBit-BRG1 fusion protein (Homo sapiens)"
  Dmax: "< 50%"
- Compound: "Cc1ncsc1-c1ccc(CNC(=O)[C@@H]2C[C@@H](O)CN2C(=O)[C@@H](NC(=O)CCCCCCC(=O)NCCCC[C@H](NC(=O)c2ccn(S(C)(=O)=O)c2)C(=O)Nc2nc(-c3ccccc3)cs2)C(C)(C)C)cc1"
  Target Or Test System: "HiBit-BRG1 fusion protein (Homo sapiens)"
  Dmax: "< 50%"
- Compound: "Cc1cc(C(=O)NCC(=O)Nc2nc(-c3cccc(-c4ccnc(N(C)CC(=O)N5CCC(C6CCN(C(=O)COc7cccc8c7C(=O)N(C7CCC(=O)NC7=O)C8=O)CC6)CC5)c4)c3)cs2)cn1S(C)(=O)=O (stereo not drawn)"
  Target Or Test System: "HiBit-BRG1 fusion protein (Homo sapiens)"
  Dmax: "< 50%"
- Compound: "CS(=O)(=O)n1ccc(C(=O)N[C@@H](COCc2ccc(C(=O)NCCNc3ccc4c(c3)C(=O)N(C3CCC(=O)NC3=O)C4=O)cc2)C(=O)Nc2nc(-c3ccccc3)cs2)c1 (stereo partly drawn)"
  Target Or Test System: "HiBit-BRG1 fusion protein (Homo sapiens)"
  Dmax: "< 50%"
- Compound: "CC(C)(C(=O)N1CCC(C2CCN(C(=O)COc3cccc4c3C(=O)N(C3CCC(=O)NC3=O)C4=O)CC2)CC1)n1ccc(-c2cccc(-c3csc(NC(=O)CNC(=O)c4ccn(S(C)(=O)=O)c4)n3)c2)n1 (stereo not drawn)"
  Target Or Test System: "HiBit-BRG1 fusion protein (Homo sapiens)"
  Dmax: "< 50%"
- Compound: "Cc1ncsc1-c1ccc(CNC(=O)[C@@H]2C[C@@H](O)CN2C(=O)[C@@H](NC(=O)CCCCCCCNC(=O)C2(c3cc(-c4cccc(-c5csc(NC(=O)CNC(=O)c6ccn(S(C)(=O)=O)c6)n5)c4)ccn3)CC2)C(C)(C)C)cc1"
  Target Or Test System: "HiBit-BRG1 fusion protein (Homo sapiens)"
  Dmax: "> 75%"
- Compound: "CS(=O)(=O)n1ccc(C(=O)NCC(=O)Nc2nc(-c3cccc(-c4ccnc(C5(C(=O)N6CCN(CCCOc7ccc8c(c7)C(=O)N(C7CCC(=O)NC7=O)C8=O)CC6)CC5)c4)c3)cs2)c1 (stereo not drawn)"
  Target Or Test System: "HiBit-BRG1 fusion protein (Homo sapiens)"
  Dmax: "> 75%"
- Compound: "CS(=O)(=O)n1ccc(C(=O)N[C@@H](CCOCCCC(=O)NCCOc2cccc(OCCNc3ccc4c(c3)C(=O)N(C3CCC(=O)NC3=O)C4=O)c2)C(=O)Nc2nc(-c3ccccc3)cs2)c1 (stereo partly drawn)"
  Target Or Test System: "HiBit-BRG1 fusion protein (Homo sapiens)"
  Dmax: "< 50%"
- Compound: "CS(=O)(=O)n1ccc(C(=O)NCC(=O)Nc2nc(-c3cccc(-c4ccnc(C5(C(=O)NC6CCN(CCCCOc7ccc8c(c7)C(=O)N(C7CCC(=O)NC7=O)C8=O)CC6)CC5)c4)c3)cs2)c1 (stereo not drawn)"
  Target Or Test System: "HiBit-BRG1 fusion protein (Homo sapiens)"
  Dmax: "> 75%"
- Compound: "CS(=O)(=O)n1ccc(C(=O)NCC(=O)Nc2nc(-c3cccc(-c4ccnc(C5(C(=O)N6CCN(c7ccc8c(c7)C(=O)N(C7CCC(=O)NC7=O)C8=O)CC6)CC5)c4)c3)cs2)c1 (stereo not drawn)"
  Target Or Test System: "HiBit-BRG1 fusion protein (Homo sapiens)"
  Dmax: "< 50%"
- Compound: "CC(C)(C(=O)NCCCCCCCCNC(=O)COc1cccc2c1C(=O)N(C1CCC(=O)NC1=O)C2=O)n1ccc(-c2cccc(-c3csc(NC(=O)CNC(=O)c4ccn(S(C)(=O)=O)c4)n3)c2)n1 (stereo not drawn)"
  Target Or Test System: "HiBit-BRG1 fusion protein (Homo sapiens)"
  Dmax: "50 to 75%"
- Compound: "Cc1ncsc1-c1ccc(CNC(=O)[C@@H]2C[C@@H](O)CN2C(=O)[C@@H](NC(=O)CCCCCCCCCCCCC(=O)NCCCC[C@H](NC(=O)c2ccn(S(C)(=O)=O)c2)C(=O)Nc2nc(-c3ccccc3)cs2)C(C)(C)C)cc1"
  Target Or Test System: "HiBit-BRG1 fusion protein (Homo sapiens)"
  Dmax: "< 50%"

---

Target Or Test System: HiBit-BRM fusion protein (Homo sapiens, UniProt P51531)
Construct: expressed in transfected cells
Sequence (P51531 whole entry, the tested form may be a part): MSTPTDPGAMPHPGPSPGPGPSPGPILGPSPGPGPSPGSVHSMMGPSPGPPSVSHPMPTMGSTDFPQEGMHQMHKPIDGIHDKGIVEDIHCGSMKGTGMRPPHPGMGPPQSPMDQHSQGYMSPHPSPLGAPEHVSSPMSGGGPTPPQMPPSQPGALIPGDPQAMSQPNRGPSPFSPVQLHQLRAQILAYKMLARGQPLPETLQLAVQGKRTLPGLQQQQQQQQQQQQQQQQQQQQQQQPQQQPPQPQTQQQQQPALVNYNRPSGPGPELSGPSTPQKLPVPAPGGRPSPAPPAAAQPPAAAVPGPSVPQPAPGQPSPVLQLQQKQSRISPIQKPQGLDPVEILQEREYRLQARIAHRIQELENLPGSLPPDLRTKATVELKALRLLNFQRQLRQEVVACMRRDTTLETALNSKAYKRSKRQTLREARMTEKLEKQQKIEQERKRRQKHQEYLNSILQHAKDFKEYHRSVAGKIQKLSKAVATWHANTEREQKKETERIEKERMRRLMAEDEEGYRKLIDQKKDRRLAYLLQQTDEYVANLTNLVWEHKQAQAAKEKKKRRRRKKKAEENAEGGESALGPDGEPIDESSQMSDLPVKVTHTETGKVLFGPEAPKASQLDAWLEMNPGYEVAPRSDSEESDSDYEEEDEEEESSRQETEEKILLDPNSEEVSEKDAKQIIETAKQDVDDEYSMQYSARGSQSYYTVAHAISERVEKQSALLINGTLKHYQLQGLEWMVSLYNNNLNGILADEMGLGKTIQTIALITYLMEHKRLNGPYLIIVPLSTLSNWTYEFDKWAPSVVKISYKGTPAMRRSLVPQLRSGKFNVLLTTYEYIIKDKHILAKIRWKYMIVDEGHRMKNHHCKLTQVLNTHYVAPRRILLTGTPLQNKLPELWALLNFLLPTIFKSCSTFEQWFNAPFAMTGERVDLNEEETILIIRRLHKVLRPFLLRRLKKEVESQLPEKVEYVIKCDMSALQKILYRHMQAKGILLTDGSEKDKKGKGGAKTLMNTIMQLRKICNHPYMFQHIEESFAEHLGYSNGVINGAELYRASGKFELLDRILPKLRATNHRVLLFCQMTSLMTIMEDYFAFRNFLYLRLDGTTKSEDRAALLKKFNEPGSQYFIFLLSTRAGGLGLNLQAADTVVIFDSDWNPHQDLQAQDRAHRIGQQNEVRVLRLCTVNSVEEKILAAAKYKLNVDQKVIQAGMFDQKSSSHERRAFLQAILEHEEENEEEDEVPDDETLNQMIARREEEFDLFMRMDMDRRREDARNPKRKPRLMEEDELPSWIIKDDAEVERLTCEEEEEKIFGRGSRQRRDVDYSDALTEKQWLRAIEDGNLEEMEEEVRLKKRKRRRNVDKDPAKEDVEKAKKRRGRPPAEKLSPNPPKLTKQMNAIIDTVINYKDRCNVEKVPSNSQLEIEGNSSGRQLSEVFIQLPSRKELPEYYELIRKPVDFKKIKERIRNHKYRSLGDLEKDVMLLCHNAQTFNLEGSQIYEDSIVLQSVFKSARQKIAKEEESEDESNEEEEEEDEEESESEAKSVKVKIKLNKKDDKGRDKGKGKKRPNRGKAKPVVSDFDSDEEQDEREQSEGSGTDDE
Procedure Details: HiBiT-BRM cell-based degradation assay (Nano-Glo HiBiT Lytic Detection, 24 h)
Cond: HeLa cells expressing HiBiT-BRM, read-out: BRM HiBit Degradation IC50
The following molecules are listed with their measured DC50 values.

- Molecule: "CS(=O)(=O)n1ccc(C(=O)N[C@@H](COCCCC(=O)NCCCCCNc2ccc3c(c2)C(=O)N(C2CCC(=O)NC2=O)C3=O)C(=O)Nc2nc(-c3ccccc3)cs2)c1 (stereo partly drawn) [Compound 187]"
  DC50: "> 10 µM"
- Molecule: "Cc1ncsc1-c1ccc(CNC(=O)[C@@H]2C[C@@H](O)CN2C(=O)[C@@H](NC(=O)CCCCC(=O)NCc2ccc(COC[C@H](NC(=O)c3ccn(S(C)(=O)=O)c3)C(=O)Nc3nc(-c4ccccc4)cs3)cc2)C(C)(C)C)cc1 [Compound 208]"
  DC50: "> 10 µM"
- Molecule: "CN(CCCCNC(=O)C1(c2cc(-c3cccc(-c4csc(NC(=O)CNC(=O)c5ccn(S(C)(=O)=O)c5)n4)c3)ccn2)CC1)CCCNc1cccc2c1C(=O)N(C1CCC(=O)NC1=O)C2=O (stereo not drawn) [Compound 106]"
  DC50: "> 10 µM"
- Molecule: "CS(=O)(=O)n1ccc(C(=O)NC(CCOCCCC(=O)NC2CCN(CCOc3ccc4c(c3)C(=O)N(C3CCC(=O)NC3=O)C4=O)CC2)C(=O)Nc2nc(-c3ccccc3)cs2)c1 (stereo not drawn) [Compound 279]"
  DC50: "> 10 µM"
- Molecule: "CS(=O)(=O)n1ccc(C(=O)N[C@@H](COCc2ccc(C(=O)NCCCCNc3ccc4c(c3)C(=O)N(C3CCC(=O)NC3=O)C4=O)cc2)C(=O)Nc2nc(-c3ccccc3)cs2)c1 (stereo partly drawn) [Compound 242]"
  DC50: "0.1 to 1 µM"
- Molecule: "CS(=O)(=O)n1ccc(C(=O)N[C@@H](CCCCNC(=O)CCCCCCCCCCNc2cccc3c2C(=O)N(C2CCC(=O)NC2=O)C3=O)C(=O)Nc2nc(-c3ccccc3)cs2)c1 (stereo partly drawn) [Compound 296]"
  DC50: "> 10 µM"
- Molecule: "Cc1ncsc1-c1ccc(CNC(=O)[C@@H]2C[C@@H](O)CN2C(=O)[C@@H](NC(=O)CCCCCC(=O)NCc2cccc(-c3cccc(-c4csc(NC(=O)CNC(=O)c5ccn(S(C)(=O)=O)c5)n4)c3)c2)C(C)(C)C)cc1 [Compound 62]"
  DC50: "0.1 to 1 µM"
- Molecule: "Cc1ncsc1-c1ccc(CNC(=O)[C@@H]2C[C@@H](O)CN2C(=O)[C@@H](NC(=O)COCC(=O)NCc2cccc(-c3cccc(-c4csc(NC(=O)CNC(=O)c5ccn(S(C)(=O)=O)c5)n4)c3)c2)C(C)(C)C)cc1 [Compound 18]"
  DC50: "> 10 µM"
- Molecule: "Cc1ncsc1-c1ccc(CNC(=O)[C@@H]2C[C@@H](O)CN2C(=O)[C@@H](NC(=O)COCCOCCNC(=O)c2ccc(COC[C@H](NC(=O)c3ccn(S(C)(=O)=O)c3)C(=O)Nc3nc(-c4ccccc4)cs3)cc2)C(C)(C)C)cc1 [Compound 188]"
  DC50: "> 10 µM"
